molecular target: human FKBP52FK1 (Homo sapiens); assay: Fluorescence polarization assay, binding to FK1 domain of FKBP52; details: at a concentration of 5 μM; library testing; read-out: FKBP52 FK1 % inhibition
# maps each entry to its inhibition at 5 µM
Your answer is read as %, so omit the unit and give the number.

> print(dat)
                                   compound  readout.value
1  COc1ccc(CC[C@@H](OC(=O)[C@@H]2CCCCN2S(=O)(=O)c2ccc(-c3ccccc3)nc2)c2cccc(OCC(=O)O)c2)cc1OC [Compound 44]            8.5

Please indicate inhibition at 5 µM recorded for COc1ccc(CC[C@@H](OC(=O)[C@@H]2CCCCN2S(=O)(=O)c2cc3ccccc3s2)c2cccc(OCC(=O)O)c2)cc1OC [Compound 5]
15.2

Look up and state reported inhibition at 5 µM for COc1ccc(CC[C@@H](OC(=O)[C@@H]2CCCCN2S(=O)(=O)c2ccc(Oc3ccccc3)cc2)c2cccc(OCC(=O)O)c2)cc1OC [Compound 41]
15.2

Give the measured inhibition at 5 µM for COc1ccc(CC[C@@H](OC(=O)[C@@H]2CCCCN2S(=O)(=O)c2c(C)nn(C)c2C)c2cccc(OCC(=O)O)c2)cc1OC [Compound 61]
1.9

Consider the compound COc1ccc(CC[C@@H](OC(=O)[C@@H]2CCCCN2S(=O)(=O)c2ccc(C(F)(F)F)cc2)c2cccc(OCC(=O)O)c2)cc1OC [Compound 40] and give its recorded inhibition at 5 µM.
12.3

Give a short answer stating reported inhibition at 5 µM for COc1ccc(CC[C@@H](OC(=O)[C@@H]2CCCCN2S(=O)(=O)c2cccc3c2ccn3C)c2cccc(OCC(=O)O)c2)cc1OC [Compound 49] .
6.6

Look up and state reported inhibition at 5 µM for COc1ccc(CC[C@@H](OC(=O)[C@@H]2CCCCN2S(=O)(=O)c2csc3ccccc23)c2cccc(OCC(=O)O)c2)cc1OC [Compound 57]
4.7

Using known records, supply inhibition at 5 µM for COc1ccc(CC[C@@H](OC(=O)[C@@H]2CCCCN2S(=O)(=O)c2c(C)nn(-c3ccccc3)c2C)c2cccc(OCC(=O)O)c2)cc1OC [Compound 62]
4.7

Fill in inhibition at 5 µM for record COc1ccc(CC[C@@H](OC(=O)[C@@H]2CCCCN2S(=O)(=O)c2cccs2)c2cccc(OCC(=O)O)c2)cc1OC [Compound 55]
8.5

Determine its reported inhibition at 5 µM: COc1ccc(CC[C@@H](OC(=O)[C@@H]2CCCCN2S(=O)(=O)c2ccc(Oc3ccccc3)nc2)c2cccc(OCC(=O)O)c2)cc1OC [Compound 43]
11.4

---

Molecular target: human FKBP52FK1 (Homo sapiens)
Sequence (Q02790 50-138 limits assumed): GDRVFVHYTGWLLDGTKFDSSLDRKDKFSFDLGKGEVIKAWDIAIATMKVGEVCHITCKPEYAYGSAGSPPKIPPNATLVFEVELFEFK
PROPERTY_LABEL: pIC50
Reminder that pIC50 means the negative base-10 logarithm of the concentration expressed in mol/L.

Observe how each entry below is paired with its result.
> print(dat)
                               smiles.entry  readout.value
1  COc1ccc(CC[C@@H](OC(=O)[C@@H]2CCCCN2S(=O)(=O)c2cccc(Br)c2)c2cccc(OCC(=O)O)c2)cc1OC           4.77
2  COc1ccc(CC[C@@H](OC(=O)[C@@H]2CCCCN2S(=O)(=O)c2cc(Cl)cc(Cl)c2)c2cccc(OCC(=O)O)c2)cc1OC           4.84
3  COc1ccc(CC[C@@H](OC(=O)[C@@H]2CCCCN2S(=O)(=O)c2cc(Cl)c(OC)c(Cl)c2)c2cccc(OCC(=O)O)c2)cc1OC           4.75

Here is another compound to look at.
Given COc1ccc(CC[C@@H](OC(=O)[C@@H]2CCCCN2S(=O)(=O)c2ccc3[nH]c(=O)sc3c2)c2cccc(OCC(=O)O)c2)cc1OC , respond with its pIC50.
4.18
